- ASSAY PROCEDURE: chemical genetic growth profiling, strain panel (AID 1159580);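 further: tested at 20 µM; growth read once vehicle control cultures reached saturation at 30 °C; 1 = growth at the plate median or of vehicle wells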
- SETTINGS: S. cerevisiae deletion strains, growth OD, locus YNL307C, strain MCK1
Among all 5,500 compounds or so, about 2,000 (36%) were called active. Inconclusive results (about 18%) are left out. No stated cut-off is given here; in the data, active means normalized growth mostly below about 0.91 (no sharp cut-off); inconclusive means no clear call, values can overlap the other calls; inactive means mostly above about 0.92. Some of the results follow.
Possible outcomes: active, inactive

COMPOUND	QUALITATIVE LABEL
COc1cc(N)c(Cl)cc1C(=O)NC1CCN(Cc2ccccc2)CC1	inactive
Nc1ccc(S(=O)(=O)Nc2cnc3ccccc3n2)cc1	inactive
C[C@@H]1CC[C@]2(C(=O)O)CC[C@]3(C)C(=CCC4[C@@]5(C)CC[C@H](O)C(C)(C)C5CC[C@]43C)C2[C@H]1C (some centres not stated)	inactive
CC(C)(C#N)O[C@@H]1O[C@H](CO)[C@@H](O)[C@H](O)[C@H]1O	inactive
O=c1[nH]cc(F)c(=O)[nH]1	active
NNc1nncc2ccccc12	inactive
Nc1c2c(nc3ccccc13)CCCC2	inactive
CC(C)=CCCC1(C)C=Cc2c(O)c3c(c(CC=C(C)C)c2O1)OC12C(=CC4CC1C(C)(C)OC2(C/C=C(\C)C(N)=O)C4=O)C3=O (configuration not stated)	active
CC1(C)CC[C@@]2(C(=O)O)C(C1)C1=CCC3[C@@]4(C)CC[C@H](O)C(C)(C)C4CC[C@@]3(C)[C@]1(C)C[C@@H]2O (some centres not stated)	inactive
C[C@@H]1OC(O[C@H]2[C@H](OC(=O)[C@]34CCC(C)(C)CC3C3=CCC5[C@@]6(C)CC[C@H](OC7O[C@@H](C)[C@H](O[C@@H]8OC[C@@H](O)[C@H](O)[C@H]8O)[C@@H](O)[C@H]7O)C(C)(C)C6CC[C@@]5(C)[C@]3(C)CC4O)OC[C@H](O)[C@H]2O)[C@H](O)[C@H](O)[C@H]1O[C@@H]1O[C@H](CO)[C@@H](O)[C@H](O)[C@H]1O (some centres not stated)	inactive
CC(=O)/C=C\[C@@H]1[C@@]2(C)CCCC(C)(C)C2CC[C@@]1(C)O (some centres not stated)	inactive
COC(=O)/C(C)=C\CC12OC(C)(C)C3CC(C=C4C(=O)c5c(O)c6c(c(CCC(C)(C)Cl)c5OC431)OC1(C)CCC(=C(C)C)C6C1)C2=O (configuration not stated)	inactive
CC(C)=CCCC1(C)C=Cc2c(O)c3c(c(CC=C(C)C)c2O1)OC12C(=CCCC1C(C)(C)O[C@@]2(C/C=C(\C)C(=O)O)C(=O)O)C3=O (some centres not stated)	active
Nc1c2ccccc2nc2ccccc12 (tested in a mixture with another compound)	active
CC(=O)NCc1c(I)c(NC(C)=O)c(I)c(C(=O)O)c1I	inactive
Cc1cc(C(C)(C)C)c(O)c(C(C)(C)C)c1	inactive
CC(C)(Sc1cc(C(C)(C)C)c(O)c(C(C)(C)C)c1)Sc1cc(C(C)(C)C)c(O)c(C(C)(C)C)c1	inactive

---

- ASSAY PROCEDURE: chemical genetic growth profiling, strain panel (AID 1159580);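 further: tested at 20 µM; growth read once vehicle control cultures reached saturation at 30 °C; 1 = growth at the plate median or of vehicle wells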
- SETTINGS: S. cerevisiae deletion strains, growth OD, locus YLR342W, strain FKS1, stronger effect = lower value
About 2,000 (36%) of roughly 5,500 compounds were called active. About 18% were inconclusive and are not listed. The list shows a part of the results.
RECORDED ENDPOINT: normalized growth

COMPOUND	RESULT
NC12CC3CC(CC(C3)C1)C2	1.03 (inactive)
Nc1c2c(nc3ccccc13)CCCC2	0.999 (inactive)
Clc1ccccc1C(c1ccccc1)(c1ccccc1)n1ccnc1	0.0672 (active)
CC1OC(=O)C(C(C)C)NC(=O)C(C(C)C)OC(=O)C(C(C)C)NC(=O)C(C)OC(=O)C(C(C)C)NC(=O)C(C(C)C)OC(=O)C(C(C)C)NC(=O)C(C)OC(=O)C(C(C)C)NC(=O)C(C(C)C)OC(=O)C(C(C)C)NC1=O (stereo not given)	0.115 (active)
O=C1c2c(O)cccc2Cc2cccc(O)c21	0.996 (inactive)
NC(N)=N/N=C/c1c(Cl)cccc1Cl	0.977 (inactive)
CC(=O)O[C@H]1CC[C@@]2(C)C(CC[C@]3(C)C2CC=C2C4CC(C)(C)CC[C@]4(C)CC[C@]23C)C1(C)C (stereo not given in full)	0.991 (inactive)
Nc1c2ccccc2nc2ccccc12 (tested in a mixture with another compound)	0.945 (inactive)
CC1(C)CC(O)C2(C)CCC3(C)C(=CCC4C5(C)CCC(O)C(C)(CO)C5CCC43C)C2C1 (stereo not given)	1.02 (inactive)
Cc1cc(C(C)(C)C)c(O)c(C(C)(C)C)c1	0.975 (inactive)
FC(F)(F)c1ccccc1-n1ccnc1	1 (inactive)
CO[C@@]12[C@@H]3NC3CN1C1=C(C(=O)C(N)=C(C)C1=O)[C@@H]2COC(N)=O (stereo not given in full)	0.952 (inactive)
O=c1ccc2ccc(O)cc2o1	1 (inactive)
COc1ccc2c(c1)c(CC(=O)OCC(=O)O)c(C)n2C(=O)c1ccc(Cl)cc1	0.971 (inactive)
N=C(N)c1ccc(OCCCCCOc2ccc(C(=N)N)cc2)cc1	0.958 (inactive)
C[C@@H]1OC(O[C@H]2C(O[C@H]3CC[C@@]4(C)C(CC[C@]5(C)C4CC=C4C6CC(C)(C)CC[C@]6(C(=O)O)CC[C@]45C)[C@]3(C)CO)OC[C@H](O)[C@@H]2O)[C@H](O)[C@H](O)[C@H]1O (stereo not given in full)	0.0611 (active)
NNc1nncc2ccccc12	1.01 (inactive)
CC1(C)CC[C@]2(C(=O)O)CC[C@]3(C)C(=CCC4[C@@]5(C)CC[C@H](O)[C@@](C)(CO)C5CC[C@]43C)C2C1 (stereo not given in full)	1.03 (inactive)
CCC(C)C(=O)O[C@H]1[C@H](O)C2C(CN3CC(C)CCC3[C@@]2(C)O)C2C[C@]34O[C@]5(O)C(OC(=O)C(C)(O)CC)CC[C@@]3(C)C5C(OC(C)=O)[C@@H](OC(C)=O)C4[C@@]21O (stereo not given in full)	1.01 (inactive)
COc1ccc2c(c1)c(CC(=O)O)c(C)n2C(=O)c1ccc(Cl)cc1	0.971 (inactive)

---

Known normalized growth of a selection of molecules
- ASSAY PROCEDURE: chemical genetic growth profiling, strain panel (AID 1159580);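 further: tested at 20 µM; growth read once vehicle control cultures reached saturation at 30 °C; 1 = growth at the plate median or of vehicle wells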
- SETTINGS: S. cerevisiae deletion strains, growth OD, locus YNL209W, strain ssb2, stronger effect = lower value
Among all 5,500 compounds or so, about 2,000 (36%) were called active. Another 18% or so got no clear call; they are omitted. The list shows a part of the results. Where a SMILES comes first, the peptide text is derived from it. Bridges are numbered along the chain shown (N, C = ends). [ ]: non-standard residue; d: D form. The star is where a group is joined. ξ: configuration not given here. ξDab(CH2SO3H) = NC(CCNCS(=O)(=O)O)C(=O)O; Heptanoyl(6-Me) = CC(C)CCCCC(=O)*; Dab = NCC[CH](N)C(=O)O
RECORDED ENDPOINT: normalized growth

MOLECULE	RECORDED ENDPOINT	NUMERIC READOUT
CC(=O)NCc1c(I)c(NC(C)=O)c(I)c(C(=O)O)c1I	normalized growth	1
CC1(C)CC[C@]2(C(=O)O)CC[C@]3(C)C(=CCC4[C@@]5(C)CC[C@@H](O)C(C)(C)C5CC[C@]43C)C2C1 (stereo partly specified)	normalized growth	1.01
Cc1cc(O)cc(C)c1Cl	normalized growth	0.929
CO[C@@]12[C@@H]3NC3CN1C1=C(C(=O)C(N)=C(C)C1=O)[C@@H]2COC(N)=O (stereo partly specified)	normalized growth	0.972
COC(=O)C[C@H]1C(C)(C)C2(O)OC34CC2C(=O)[C@]1(C)C3CC[C@]1(C)C4=CC(=O)O[C@H]1c1ccoc1 (stereo partly specified)	normalized growth	0.984
C[C@@H]1OC(O[C@H]2C(O[C@H]3CC[C@@]4(C)C(CC[C@]5(C)C4CC=C4C6CC(C)(C)CC[C@]6(C(=O)O)CC[C@]45C)[C@]3(C)CO)OC[C@H](O)[C@@H]2O)[C@H](O)[C@H](O)[C@H]1O (stereo partly specified)	normalized growth	0.0578
CCOC(=O)OC(C)OC(=O)C1N2C(=O)C(NC(=O)[C@H](N)c3ccccc3)C2SC1(C)C (stereo partly specified)	normalized growth	0.989
O=C1c2c(O)cccc2Cc2cccc(O)c21	normalized growth	1
CNC(=O)O/N=C\C(C)(C)SC	normalized growth	1.01
CCC(C)C1NC(=O)C(CCNCS(=O)(=O)O)NC(=O)C(NC(=O)C(CCNCS(=O)(=O)O)NC(=O)C(NC(=O)C(CCNCS(=O)(=O)O)NC(=O)CCCCC(C)C)C(C)O)CCNC(=O)C(C(C)O)NC(=O)C(CCNCS(=O)(=O)O)NC(=O)C(CCNCS(=O)(=O)O)NC(=O)C(C(C)CC)NC1=O (stereo unspecified) ({Heptanoyl(6-Me)}-[ξDab(CH2SO3H)]T[ξDab(CH2SO3H)][Dab][ξDab(CH2SO3H)]II[ξDab(CH2SO3H)][ξDab(CH2SO3H)]T; lactam 4-C; configuration not given here)	normalized growth	1.02
Cc1cc(O)ccc1Cl	normalized growth	1
Cc1cc(O)cc(=O)o1	normalized growth	0.995
COc1cccc2c1C(=O)c1c(O)c3c(c(O)c1C2=O)C[C@@](O)(C(=O)CO)C[C@@H]3OC1C[C@H](N)[C@H](O)[C@H](C)O1 (stereo partly specified)	normalized growth	0.656
CC1(C)CC(O)C2(C)CCC3(C)C(=CCC4C5(C)CCC(O)C(C)(CO)C5CCC43C)C2C1 (stereo unspecified)	normalized growth	1.03
Cc1ccnc(NS(=O)(=O)c2ccc(N)cc2)n1	normalized growth	0.982
CC1(C)CC[C@]2(C(=O)O)CC[C@]3(C)C(=CCC4[C@@]5(C)CC[C@H](O)[C@@](C)(CO)C5CC[C@]43C)C2C1 (stereo partly specified)	normalized growth	1.01
